system: Wild type; experiment: S. aureus survival, RN4220 and DeltatarO strains – OD600, teichoic acid synthesis inhibitors, primary screen (AID 463173); details: S. aureus RN4220 wild type/DeltatarO growth, OD600, 18 h, screened at 18.75 µg/mL (by protocol)
About 1,700 (3.3%) of roughly 52,000 compounds were called active. Rule as the data show it: active = survival mostly below about 52% (no sharp cut-off); inactive = mostly above about 56%. The list comes from a sample in which actives are over-represented; it also holds close analogues and randomly drawn compounds.
Field 'call' accepts 1.0 for active, 0.0 for inactive

// below: answered compounds
O=C(C1CCN(c2ncnc3c2nc2n3CCCCC2)CC1)N1CCN(c2ccccc2F)CC1	0.0
O=C(O)CCc1ccc(-c2cccs2)n1CC(=O)Nc1ccccc1C(F)(F)F	0.0

Please state the recorded outcome for this compound: CCC(Cn1nnc2ccccc2c1=O)NC(=O)Nc1ccccc1OC (configuration not stated)
0.0

NC(=O)CC(c1ccccc1)c1ccc2c(c1)OCO2 (configuration not stated) ?
0.0

// next record O=C(CSc1nc2ccsc2c(=O)n1Cc1ccc(F)cc1)NCc1ccc(Cl)cc1
0.0

Try this compound next: CCOc1cc(C(=O)OCc2cc(=O)n3c(C)csc3n2)cc(OCC)c1OCC
1.0

Cool, now CC(=O)c1cccc(-n2c(=O)c3c4c(sc3n(Cc3ccccc3Cl)c2=O)CN(C(C)=O)CC4)c1
0.0

Could you do the same for CCOC(=O)c1ccccc1NC(=O)CSc1ncc(CO)n1Cc1ccc(C)cc1 , please?
0.0

Do the same for O=c1[nH]c2ccccc2c(O)c1-c1nc2ccccc2c(=O)[nH]1 please
0.0

The measurements presented in this section are drawn from PubChem BioAssay AID463173.
